Target: GPR40 (Homo sapiens)
Construct: expressed in transfected cells; host or cells: HEK293 cells stably expressing GPR40 (Hygromycin selection)
Sequence (O14842 whole entry): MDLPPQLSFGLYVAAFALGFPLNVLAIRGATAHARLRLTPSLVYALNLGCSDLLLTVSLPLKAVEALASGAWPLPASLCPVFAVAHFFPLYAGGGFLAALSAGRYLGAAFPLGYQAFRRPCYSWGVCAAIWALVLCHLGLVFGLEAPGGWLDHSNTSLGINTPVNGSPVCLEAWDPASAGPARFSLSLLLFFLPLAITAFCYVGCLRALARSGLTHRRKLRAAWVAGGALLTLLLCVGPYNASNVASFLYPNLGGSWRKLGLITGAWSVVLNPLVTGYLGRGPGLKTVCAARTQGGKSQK
Assay: IP1 accumulation assay in HEK293 cells stably expressing GPR40
Type: cell-based
Conditions: Tables A-1a to A-7b (structure-property relationship); obtained by methods of Biological Example 1
Description: IP1 accumulation assay was used to evaluate the potency of compounds. […] Assay plate was incubated at room temperature for 60 min and then read at 665 nm/615 nm on an Envision plate reader (PerkinElmer). […] Dose curve was fitted and EC50 of each compound was calculated by using XLFit.
pEC50: −log10 of the molar value.
PROPERTY_LABEL: pEC50

COc1ccc(F)c(-c2ccc(COc3cccc([C@@H](CC(=O)O)C4CC4)c3)cc2CC(C)(C)Cn2cc(CCCCCCCCC(=O)NCC[N+](C)(CCC(=O)NCCN)CCC(=O)NCCN)nn2)c1 | 5.29
COc1ccc(F)c(-c2ccc(COc3cccc([C@@H](CC(=O)O)C4CC4)c3)cc2CC(C)(C)Cn2cc(CCCCCCCCCCC(=O)NCC[N+](C)(CCC(=O)NCCN)CCC(=O)NCCN)nn2)c1 | 5.90
COc1ccc(C(=O)N(CC(C)(C)CCn2cc(CCCCCCCCCC(=O)NCCCN(CC(=O)O)CC(=O)O)nn2)c2cccc(C)n2)c(N2CCC(COc3cc([C@@H](CC(=O)O)C4CC4)ccn3)CC2)c1 | 6.65
C[C@H](C(=O)O)[C@H](c1ccc2c(c1)O[C@@H](C1CCN(Cc3cc(-n4cc(CCCCCCCCCC(=O)NCC[N+](C)(CCC(=O)NCCN)CCC(=O)NCCN)nn4)ccc3OC(F)(F)F)CC1)CC2)C1CC1 | 6.94
